biological target: β-galactocerebrosidase (Mus musculus, UniProt P54818); construct: mouse brain microsome as an enzyme source; from tissue; host or cells: mouse brain microsome; experiment: β-galactocerebrosidase inhibition with NBD-galactocerebroside (fluorescence-labeled natural substrate), mouse brain microsome; format: biochemical; conditions: 10 μM; NBD-galactocerebroside; mouse brain microsome
Sequence (P54818 43-684): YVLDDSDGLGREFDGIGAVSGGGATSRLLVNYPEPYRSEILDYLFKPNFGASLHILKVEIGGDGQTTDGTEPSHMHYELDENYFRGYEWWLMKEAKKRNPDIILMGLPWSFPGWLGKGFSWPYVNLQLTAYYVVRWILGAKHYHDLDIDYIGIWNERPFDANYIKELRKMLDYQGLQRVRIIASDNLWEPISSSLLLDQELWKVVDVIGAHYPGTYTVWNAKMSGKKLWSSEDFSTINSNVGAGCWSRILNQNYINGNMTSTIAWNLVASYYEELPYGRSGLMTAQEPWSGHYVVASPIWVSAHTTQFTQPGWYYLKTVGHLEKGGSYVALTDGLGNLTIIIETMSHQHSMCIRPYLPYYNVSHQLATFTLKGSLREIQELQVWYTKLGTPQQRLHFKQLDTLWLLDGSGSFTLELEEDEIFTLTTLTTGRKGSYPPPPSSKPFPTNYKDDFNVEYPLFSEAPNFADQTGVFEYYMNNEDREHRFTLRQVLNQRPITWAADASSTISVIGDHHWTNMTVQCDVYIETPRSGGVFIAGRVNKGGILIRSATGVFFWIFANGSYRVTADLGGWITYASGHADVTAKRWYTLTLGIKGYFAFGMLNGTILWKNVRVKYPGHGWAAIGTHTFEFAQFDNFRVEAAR
readout-label: inhibition at 10 µM (%)

Take a look at these entries with their results.
compound	unit-string	val
CCCCCCCCCCCCC/C=C\[C@@H](O)[C@H](CN[C@@H]1C=C(CO)[C@H](O)[C@H](O)[C@H]1O)NC(=O)CCCCCCCCCCCCCCC	%	87.2
CCCCCCCCCCCCC/C=C\[C@@H](O)[C@H](CN[C@@H]1C[C@H](CO)[C@H](O)[C@H](O)[C@H]1O)NC(=O)CCCCCCCCCCCCCCC [Compound C-4, reference compound]	%	15.4
CCCCCCCCCCCCC/C=C/[C@@H](O)[C@H](CN[C@@H]1C=C(CO)[C@@H](O)[C@H](O)[C@H]1O)NC(=O)CCCCCCCCCCCCCCC	%	0

A = CCCCCCCCCCCCC/C=C\[C@@H](O)[C@H](CN[C@@H]1C=C(CO)[C@@H](O)[C@H](O)[C@H]1O)NC(=O)CCCCCCCCCCCCCCC
B = CCCCCCCCCCCCC/C=C\[C@@H](O)[C@H](CN[C@@H]1C[C@H](CO)[C@@H](O)[C@H](O)[C@H]1O)NC(=O)CCCCCCCCCCCCCCC [Compound C-3, reference compound]
Prompt line: So which one has the bigger inhibition at 10 µM here, A or B ? # respond with the chosen item's label
Response line: B
(B: 2.3%, A: 0%)
